Molecular target: VvelCSP1 (Vespa velutina auraria, UniProt A0A384ZVP9)
Sequence (A0A384ZVP9 entry or part of it): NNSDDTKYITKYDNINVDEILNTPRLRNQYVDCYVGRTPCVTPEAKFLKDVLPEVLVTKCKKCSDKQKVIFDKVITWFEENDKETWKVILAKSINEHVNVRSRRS
Test: Fluorescence competitive binding assay (1-NPN probe) with VvelCSP1
Settings: VvelCSP1, chemical 1 μM
Cut-off 200 on Raw fluorescence intensity: below means Met, at or above means Not met.

- molecule smiles: "CCCCCCCCCCCCCCCCCCCCCCC"
  answer label: "Met"
- molecule smiles: "CCCCCCCCCCCCCCCCCCCCCCCCC"
  answer label: "Not met"

###

Biological target: VvelCSP4
Assay: Fluorescence competitive binding assay (1-NPN probe) with VvelCSP4
Design: species or system Vespa velutina auraria
Settings: VvelCSP4; derived from IC50; read-out: Ki (dissociation constant)
pKi: −log10 of the molar value.
Everything with pKi lower than 5 is -1; everything else, including exactly 5, is 1.

- molecule smiles: "CCCCCCCCCCCCCCCCCCCCCCC"
  assayed target: "VvelCSP4"
  answer label: 1
- molecule smiles: "CCCCCCCCCCCCCCCCCCCCCCCCCCC"
  assayed target: "VvelCSP4"
  answer label: 1
- molecule smiles: "CCCCCCCCCCCCCCCCCCCCCCCC"
  assayed target: "VvelCSP4"
  answer label: -1
- molecule smiles: "CCCCCCCCCCCCCCCCCCCCCCCCCCCCC"
  assayed target: "VvelCSP4"
  answer label: -1
- molecule smiles: "CCCCCCCCCCCCCCCCCCCCC"
  assayed target: "VvelCSP4"
  answer label: -1
- molecule smiles: "CCCCCCCC/C=C\\CCCCCCCCCCCCC"
  assayed target: "VvelCSP4"
  answer label: 1
- molecule smiles: "CCCCCCCCCCCCCCCCCCCCCCCCC"
  assayed target: "VvelCSP4"
  answer label: 1
- molecule smiles: "CCCCCCCCCCCCCCCCCCCCCC"
  assayed target: "VvelCSP4"
  answer label: 1

###

Biological target: VvelCSP1 (Vespa velutina auraria, UniProt A0A384ZVP9)
Experiment: Fluorescence competitive binding assay (1-NPN probe) with VvelCSP1
Conditions: VvelCSP1, chemical 8 μM

- molecule smiles: "CCCCCCCCCCCCCCCCCCCCCCCCCCC"
  Raw fluorescence intensity: 123.81
- molecule smiles: "CCCCCCCCCCCCCCCCCCC"
  Raw fluorescence intensity: 148.00
- molecule smiles: "CCCCCCCCCCCCCCCCCCCCCCC"
  Raw fluorescence intensity: 94.22
- molecule smiles: "CCCCCCCCCCCCCCCCCCCCCCCCCCCCCC"
  Raw fluorescence intensity: 143.85
- molecule smiles: "CCCCCCCCCCCCCCCCCCCCCCCCCCCCC"
  Raw fluorescence intensity: 138.03
- molecule smiles: "CCCCCCCCCCCCCCCCCCCCCCCCC"
  Raw fluorescence intensity: 129.88
- molecule smiles: "CCCCCCCC/C=C\\CCCCCCCCCCCCC"
  Raw fluorescence intensity: 137.73
- molecule smiles: "CCCCCCCCCCCCCCCCCCCC"
  Raw fluorescence intensity: 175.07
- molecule smiles: "CCCCCCCCCCCCCCCCCCCCCCCC"
  Raw fluorescence intensity: 131.64
- molecule smiles: "CCCCCCCCCCCCCCCCCCCCCCCCCC"
  Raw fluorescence intensity: 99.94
- molecule smiles: "CCCCCCCCCCCCCCCCCCCCCC"
  Raw fluorescence intensity: 158.53
- molecule smiles: "CCCCCCCCCCCCCCCCCCCCCCCCCCCC"
  Raw fluorescence intensity: 131.33
- molecule smiles: "CCCCCCCCCCCCCCCCCCCCC"
  Raw fluorescence intensity: 130.66
